- Target Under Test: FGFR1 (Homo sapiens)
- Construct: made in house; host or cells: E. coli derived from BL21, infected with T7 phage
- Sequence (P11362 22-822): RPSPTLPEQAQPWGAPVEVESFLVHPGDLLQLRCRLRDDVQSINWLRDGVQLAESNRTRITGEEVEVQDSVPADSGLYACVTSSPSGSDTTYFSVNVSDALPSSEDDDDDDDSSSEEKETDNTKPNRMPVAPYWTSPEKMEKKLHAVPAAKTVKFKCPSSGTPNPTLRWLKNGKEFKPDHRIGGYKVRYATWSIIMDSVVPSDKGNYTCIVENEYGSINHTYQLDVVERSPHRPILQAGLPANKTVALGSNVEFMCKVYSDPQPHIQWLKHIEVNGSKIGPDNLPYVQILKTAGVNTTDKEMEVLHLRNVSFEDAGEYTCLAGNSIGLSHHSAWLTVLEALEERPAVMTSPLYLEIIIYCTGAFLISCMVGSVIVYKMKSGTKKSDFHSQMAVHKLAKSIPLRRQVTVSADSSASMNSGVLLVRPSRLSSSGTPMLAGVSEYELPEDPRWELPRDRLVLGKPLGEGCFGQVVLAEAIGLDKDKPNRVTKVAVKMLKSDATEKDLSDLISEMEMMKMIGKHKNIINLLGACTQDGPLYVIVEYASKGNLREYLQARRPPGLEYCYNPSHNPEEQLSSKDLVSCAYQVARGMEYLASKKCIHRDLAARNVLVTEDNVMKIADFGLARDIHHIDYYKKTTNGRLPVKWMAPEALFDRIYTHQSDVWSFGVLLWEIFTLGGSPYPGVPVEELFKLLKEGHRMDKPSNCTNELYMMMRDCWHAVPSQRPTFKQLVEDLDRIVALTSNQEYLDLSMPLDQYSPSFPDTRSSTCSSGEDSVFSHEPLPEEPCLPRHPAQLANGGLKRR
- Assay Text: Kinase binding assay (kinase-tagged T7 phage, affinity beads, qPCR readout), FGFR1
- Measurement Conditions: FGFR binding data
Kd for assorted compounds
Reported Metric: Kd

- Compound Structure: "C=CC(=O)Nc1ccc2c(c1)c(C)cn2-c1cc(Nc2cn(C)nc2C)ncn1"
  Reported Metric: "Kd"
  Test Result: "> 1000 nM"
- Compound Structure: "C=CC(=O)Nc1ccc2c(c1)c(C)cn2-c1nc(Nc2cn(C)nc2C)ncc1C"
  Reported Metric: "Kd"
  Test Result: "0.1 to 100 nM"
- Compound Structure: "C=CC(=O)Nc1ccc2c(-c3ccnc(Nc4cnn(C(F)(F)F)c4)n3)cn(C)c2c1"
  Reported Metric: "Kd"
  Test Result: "250 to 1000 nM"
- Compound Structure: "C=CC(=O)Nc1ccc2c(ccn2-c2nc(Nc3ccc(N4CCOCC4)c(F)c3)ncc2Cl)c1"
  Reported Metric: "Kd"
  Test Result: "250 to 1000 nM"
- Compound Structure: "C=C(C)C(=O)Nc1cnc2c(c1)c(C)cn2-c1nc(Nc2ccn(C)n2)ncc1C"
  Reported Metric: "Kd"
  Test Result: "> 1000 nM"
- Compound Structure: "C=CC(=O)Nc1ccc2c(c1)c(C)cn2-c1cc(Nc2cnn(C)c2)ncn1"
  Reported Metric: "Kd"
  Test Result: "> 1000 nM"
- Compound Structure: "C=CC(=O)Nc1cnc2c(c1)c(C)cn2-c1ccnc(Nc2ccn(C)n2)n1"
  Reported Metric: "Kd"
  Test Result: "0.1 to 100 nM"
- Compound Structure: "C=CC(=O)Nc1ccc2c(c1)c(C)cn2-c1nc(Nc2ccnn2C)ncc1C"
  Reported Metric: "Kd"
  Test Result: "100 to 250 nM"
- Compound Structure: "C=CC(=O)Nc1ccc2c(c1)c(C)cn2-c1nc(Nc2ccn(C)n2)ncc1C"
  Reported Metric: "Kd"
  Test Result: "0.1 to 100 nM"
- Compound Structure: "C=CC(=O)Nc1ccc2c(ccn2-c2nc(Nc3ccc(N(C)CCN(C)C)cc3)ncc2Cl)c1"
  Reported Metric: "Kd"
  Test Result: "0.1 to 100 nM"
- Compound Structure: "C=CC(=O)Nc1cnc2c(c1)c(C)cn2-c1nc(Nc2cc(C)n(C(=O)OC(C)(C)C)n2)ncc1C"
  Reported Metric: "Kd"
  Test Result: "100 to 250 nM"
- Compound Structure: "Cc1cn(-c2nc(Nc3cnn(C[C@@H](C)O)c3)ncc2F)c2ncc(NC(=O)/C=C/CN(C)C)cc12"
  Reported Metric: "Kd"
  Test Result: "0.1 to 100 nM"
- Compound Structure: "C#CC(=O)Nc1ccc2c(c1)c(C)cn2-c1nc(Nc2ccnn2C)ncc1C"
  Reported Metric: "Kd"
  Test Result: "0.1 to 100 nM"
- Compound Structure: "C=CC(=O)Nc1ccc2c(c1)c(C)cn2-c1nc(Nc2cnn(CCO)c2)ncc1Cl"
  Reported Metric: "Kd"
  Test Result: "0.1 to 100 nM"
- Compound Structure: "C=CC(=O)Nc1ccc2c(c1)c(C)cn2-c1nc(Nc2c(C)cccc2OCC)ncc1Cl"
  Reported Metric: "Kd"
  Test Result: "> 1000 nM"
- Compound Structure: "C=CC(=O)Nc1ccc2c(c1)c(C)cn2-c1cc(Nc2cnn(C)c2)ncc1C"
  Reported Metric: "Kd"
  Test Result: "0.1 to 100 nM"
- Compound Structure: "C=CC(=O)Nc1ccc2c(c1)c(C)cn2-c1nc(Nc2cn(C)cn2)ncc1Cl"
  Reported Metric: "Kd"
  Test Result: "0.1 to 100 nM"
- Compound Structure: "C=CC(=O)Nc1ccc2c(c1)c(C)cn2-c1nc(Nc2ccc(CN3CCOCC3)c(C)c2)ncc1Cl"
  Reported Metric: "Kd"
  Test Result: "0.1 to 100 nM"
- Compound Structure: "C=CC(=O)Nc1ccc2c(c1)c(C)cn2-c1nc(Nc2cn(C)nc2C)ncc1F"
  Reported Metric: "Kd"
  Test Result: "0.1 to 100 nM"
- Compound Structure: "Cc1cnc(Nc2cn(C)nc2C)nc1-n1cc(C)c2cc(NC(=O)/C=C/CN(C)C)cnc21"
  Reported Metric: "Kd"
  Test Result: "0.1 to 100 nM"
- Compound Structure: "C=CC(=O)Nc1ccc2c(c1)c(C)cn2-c1nc(Nc2cccc(N3CCN(C)CC3)c2)ncc1Cl"
  Reported Metric: "Kd"
  Test Result: "0.1 to 100 nM"
- Compound Structure: "C=CC(=O)Nc1ccc2c(c1)c(C)cn2-c1nc(Nc2ccc(N3CCOCC3)c(OC)c2)ncc1C"
  Reported Metric: "Kd"
  Test Result: "0.1 to 100 nM"
- Compound Structure: "C=CC(=O)Nc1ccc2c(c1)c(C)cn2-c1cc(Nc2cn(C)nc2C)nnc1C"
  Reported Metric: "Kd"
  Test Result: "> 1000 nM"
- Compound Structure: "C#CC(=O)Nc1ccc2c(c1)c(C)cn2-c1nc(Nc2cnn(CCO)c2)ncc1F"
  Reported Metric: "Kd"
  Test Result: "0.1 to 100 nM"
- Compound Structure: "CCn1cc(Nc2ncc(F)c(-n3cc(C)c4cc(NC(=O)/C=C/CN(C)C)cnc43)n2)c(C)n1"
  Reported Metric: "Kd"
  Test Result: "100 to 250 nM"
- Compound Structure: "Cc1cnc(Nc2ccnn2C)nc1-n1cc(C)c2cc(NC(=O)/C=C/CN(C)C)ccc21"
  Reported Metric: "Kd"
  Test Result: "250 to 1000 nM"
- Compound Structure: "C=CC(=O)Nc1ccc2c(c1)c(C)cn2-c1nc(Nc2cn(CC(F)F)nc2C)ncc1F"
  Reported Metric: "Kd"
  Test Result: "0.1 to 100 nM"
- Compound Structure: "CC#CC(=O)Nc1ccc2c(c1)c(C)cn2-c1nc(Nc2cnn(CCO)c2)ncc1C"
  Reported Metric: "Kd"
  Test Result: "100 to 250 nM"
- Compound Structure: "C=CC(=O)Nc1ccc2c(c1)c(C)cn2-c1nc(Nc2cnn(C[C@@H](C)O)c2C)ncc1F"
  Reported Metric: "Kd"
  Test Result: "0.1 to 100 nM"
- Compound Structure: "C=CC(=O)Nc1ccc2c(c1)c(C)cn2-c1nc(Nc2cn(C)nc2C)nnc1Cl"
  Reported Metric: "Kd"
  Test Result: "> 1000 nM"
- Compound Structure: "C=CC(=O)Nc1ccc2c(c1)c(C)cn2-c1nc(Nc2cnn(C)c2)ncc1C#N"
  Reported Metric: "Kd"
  Test Result: "0.1 to 100 nM"
- Compound Structure: "C=CC(=O)Nc1ccc2c(c1)c(C)cn2-c1nc(Nc2cnn(C3CCN(CC)CC3)c2)ncc1Cl"
  Reported Metric: "Kd"
  Test Result: "0.1 to 100 nM"
- Compound Structure: "C=CC(=O)Nc1ccc2c(-c3nc(Nc4cnn(C)c4)ncc3Cl)cn(C)c2c1"
  Reported Metric: "Kd"
  Test Result: "0.1 to 100 nM"
